- Target entity: FOLR1 (Homo sapiens)
- Protocol description: ELISA assay of FOLR1 binding
- Run conditions: read-out: EC50 (ELISA, FOLR1)

{"Compound": "C[C@H](O)[C@H]1NC(=O)[C@@H](Cc2ccc(O)cc2)NC(=O)[C@@H](CCCNC(=N)N)NC(=O)[C@@H](CCC(=O)O)NC(=O)[C@@H](CC(=O)O)NC(=O)[C@@H](NC(=O)[C@H](Cc2cn(CCOCCOCCOCCNC(=O)CC[C@H](NC(=O)c3ccc(NCc4cnc5nc(N)[nH]c(=O)c5n4)cc3)C(=O)O)nn2)NC(=O)CCOCCOCCOCCOCCOCCOCCOCCOCCOCCOCCNC(=O)CCOCCOCCOCCOCCOCCOCCOCCOCCOCCOCCNC(=O)CCCC[C@@H]2SC[C@@H]3NC(=O)N[C@@H]32)Cc2cn(nn2)CCCC[C@@H](C(N)=O)NC1=O [Pra(Az4-PEG3-folate)-deryt]", "Unit spec": "nM", "EC50": 0.27}

====

Readings of EC50 for the listed compounds
- Target entity: FOLR1 (Homo sapiens, UniProt P15328)
- Sequence (P15328 25-234): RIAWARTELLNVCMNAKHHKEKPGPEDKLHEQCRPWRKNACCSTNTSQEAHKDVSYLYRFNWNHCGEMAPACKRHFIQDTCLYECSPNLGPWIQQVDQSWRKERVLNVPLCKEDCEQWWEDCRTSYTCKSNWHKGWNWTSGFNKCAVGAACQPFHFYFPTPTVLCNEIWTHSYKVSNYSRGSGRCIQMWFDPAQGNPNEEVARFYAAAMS
- Protocol description: ELISA assay of FOLR1 binding
- Run conditions: read-out: EC50 (ELISA, FOLR1)
Experimental readout: EC50 (pM)

{"Compound": "C[C@H](O)[C@H]1NC(=O)[C@@H](Cc2ccc(O)cc2)NC(=O)[C@@H](CCCNC(=N)N)NC(=O)[C@@H](CCC(=O)O)NC(=O)[C@@H](CC(=O)O)NC(=O)[C@@H](NC(=O)[C@H](Cc2cn(CCOCCOCCOCCNC(=O)CC[C@H](NC(=O)c3ccc(NCc4cnc5nc(N)[nH]c(=O)c5n4)cc3)C(=O)O)nn2)NC(=O)CCOCCOCCOCCOCCOCCOCCOCCOCCOCCOCCNC(=O)CCOCCOCCOCCOCCOCCOCCOCCOCCOCCOCCNC(=O)CCCC[C@@H]2SC[C@@H]3NC(=O)N[C@@H]32)Cc2cn(nn2)CCCC[C@@H](C(N)=O)NC1=O [Folate-deryt]", "Result number": 280}
{"Compound": "C[C@H](O)[C@H]1NC(=O)[C@@H](CCC(=O)O)NC(=O)[C@@H](CCC(=O)O)NC(=O)[C@@H](Cc2ccc(O)cc2)NC(=O)[C@@H](CCCCN)NC(=O)[C@@H](NC(=O)[C@H](Cc2cn(CCOCCOCCOCCNC(=O)CC[C@H](NC(=O)c3ccc(NCc4cnc5nc(N)[nH]c(=O)c5n4)cc3)C(=O)O)nn2)NC(=O)CCOCCOCCOCCOCCOCCOCCOCCOCCOCCOCCNC(=O)CCOCCOCCOCCOCCOCCOCCOCCOCCOCCOCCNC(=O)CCCC[C@@H]2SC[C@@H]3NC(=O)N[C@@H]32)Cc2cn(nn2)CCCC[C@@H](C(N)=O)NC1=O [folate-kyeet heterobiligand]", "Result number": 149}
{"Compound": "C[C@H](O)[C@H]1NC(=O)[C@@H](Cc2c[nH]cn2)NC(=O)[C@@H](CO)NC(=O)[C@@H](Cc2c[nH]cn2)NC(=O)[C@@H](NC(=O)[C@H](Cc2cn(CCOCCOCCOCCNC(=O)CC[C@H](NC(=O)c3ccc(NCc4cnc5nc(N)[nH]c(=O)c5n4)cc3)C(=O)O)nn2)NC(=O)CCOCCOCCOCCOCCOCCOCCOCCOCCOCCOCCNC(=O)CCOCCOCCOCCOCCOCCOCCOCCOCCOCCOCCNC(=O)CCCC[C@@H]2SC[C@@H]3NC(=O)N[C@@H]32)Cc2cn(nn2)CCCC[C@@H](C(N)=O)NC(=O)[C@@H](C)NC1=O [Tz heterobiligand]", "Result number": 107}
